- test details: Anti-inflammatory activity on human leucocytes cultured in vitro (Zymosan-induced respiratory burst, luminol luminescence)
- Assay type: cell-based
- assay conditions: human, leukocytes, % against control; dose 0.0001 % w/v; average of 2-3 assays, each carried out 3 times; read-out: Cell number
quantity name: viability

Recorded viability (molecule COc1cc(CCC(=O)O)cc(OC)c1O [Dihydrosinapinic acid] ): 99%

###

- test details: Anti-inflammatory activity on human leucocytes cultured in vitro (Zymosan-induced respiratory burst, luminol luminescence)
- Format: cell-based
- assay conditions: human, leukocytes, % against control; dose 0.0003 % w/v; average of 2-3 assays, each carried out 3 times; read-out: Cell number
quantity name: viability
// return the numeric value with its unit appended

viability measured on COc1cc(CCC(=O)O)cc(OC)c1O [Dihydrosinapinic acid] = 98%

The measured values listed here are drawn from patent EP1604643A1.
